Tested on: BFTC-905
Experiment Summary: cells
Type: functional, cell-based, Homo sapiens
Setup Conditions: Homo sapiens, BFTC-905
Description: SANGER: Inhibition of human BFTC-905 cell growth in a cell viability assay.
pIC50: −log10 of the molar value.
Property Measured: pIC50

Smiles Data	pIC50
Cc1cnc(-c2cnc(NCCNc3ccc(C#N)cn3)nc2-c2ccc(Cl)cc2Cl)[nH]1	< 5.59
CCOc1nc(NC(=O)Cc2cc(OC)ccc2OC)cc(N)c1C#N	< 5.00
O=c1cc(-c2cccc3c2Sc2ccccc2S3)oc(N2CCOCC2)c1	< 5.00
C=CCc1cccc(/C=N/NC(=O)CN2CCN(Cc3ccccc3)CC2)c1O	< 5.59
CC(=O)O[C@@H]1[C@@H](OC(C)=O)[C@@H](O)[C@H](Oc2c(-c3ccc(O)cc3)oc3cc(O)cc(O)c3c2=O)O[C@H]1C	< 5.00
COc1ccc(C2=N[C@@H](c3ccc(Cl)cc3)[C@@H](c3ccc(Cl)cc3)N2C(=O)N2CCNC(=O)C2)c(OC(C)C)c1	< 5.10
Cn1cncc1[C@@](N)(c1ccc(Cl)cc1)c1ccc2c(c1)c(-c1cccc(Cl)c1)cc(=O)n2C	5.73
CN(C)C/C=C/C(=O)Nc1cc2c(Nc3ccc(F)c(Cl)c3)ncnc2cc1O[C@H]1CCOC1	< 6.30

Query molecule follows.
// recorded pIC50 for `Cn1cc(C2=C(c3ccc(Cl)cc3Cl)C(=O)NC2=O)c2ccccc21` : < 5.00
